From: PubChem BioAssay AID2060610

- Tested on: 616215-338-R-J1-PDC complex spheroids, viability % test/control;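 further: spheroids exposed to agents for 7 days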
- Experimental protocol: Anticancer human tumor 616215-338-R-J1-PDC patient-derived colon adenocarcinoma cell line growth inhibition [CLK]; active means viability on the fitted dose curve at most 10% of control; inactive means the rest
- Setup conditions: second compound 1 µM; first compound 0.316 µM
Outcome codes: t = active, f = inactive

>  <Compound>
Nc1ccn(C2OC(CO)C(O)C2(F)F)c(=O)n1 (stereo not given) + CN1CCN(c2cc(C(=O)Nc3cc4cc(-c5cnn(C)c5)ccc4cn3)ccn2)CC1

>  <Tested system>
616215-338-R-J1-PDC complex spheroids, viability % test/control;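 further: spheroids exposed to agents for 7 days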

>  <Answer label>
t

$$$$
>  <Compound>
O=c1[nH]cc(F)c(=O)[nH]1 + CN1CCN(c2cc(C(=O)Nc3cc4cc(-c5cnn(C)c5)ccc4cn3)ccn2)CC1

>  <Tested system>
616215-338-R-J1-PDC complex spheroids, viability % test/control;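 further: spheroids exposed to agents for 7 days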

>  <Answer label>
t

$$$$
>  <Compound>
C#Cc1c(F)ccc2cc(O)cc(-c3ncc4c(N5CC6CCC(C5)N6)nc(OCC56CCCN5CC(F)C6)nc4c3F)c12 (stereo not given) + CNC(=O)c1ccc(Nc2nc(OC3CCCC3)c3c(-c4ccc5nc(C)oc5c4)c[nH]c3n2)c(OC)c1

>  <Tested system>
616215-338-R-J1-PDC complex spheroids, viability % test/control;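 further: spheroids exposed to agents for 7 days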

>  <Answer label>
f

$$$$
>  <Compound>
O=C(c1cc(Cc2n[nH]c(=O)c3ccccc23)ccc1F)N1CCN(C(=O)C2CC2)CC1 + CN1CCN(c2cc(C(=O)Nc3cc4cc(-c5cnn(C)c5)ccc4cn3)ccn2)CC1

>  <Tested system>
616215-338-R-J1-PDC complex spheroids, viability % test/control;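 further: spheroids exposed to agents for 7 days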

>  <Answer label>
t

$$$$
>  <Compound>
C=C(F)C(=O)N1CCN(c2nc(OCC3CCCN3C)nc3c2CCN(c2cccc4cccc(Cl)c24)C3)CC1CC#N (stereo not given) + CN1CCN(c2cc(C(=O)Nc3cc4cc(-c5cnn(C)c5)ccc4cn3)ccn2)CC1

>  <Tested system>
616215-338-R-J1-PDC complex spheroids, viability % test/control;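 further: spheroids exposed to agents for 7 days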

>  <Answer label>
t

$$$$
